Reported logD values for the following compounds.
Experiment Summary: physchem
Cond: n-octanol/PBS buffer, pH 7.4
Answer with a number only.

Example results:
>>> endpoint_value("O=C(CN1C(=O)S/C(=C\\c2ccc(O)cc2)C1=O)Nc1ccccc1Cl")
3.68
>>> endpoint_value("COCCc1ccc(OCC(O)CNC(C)C)cc1 (centres undefined) [METOPROLOL]")
0.05
>>> endpoint_value("CN(C)CCC=C1c2ccccc2CCc2ccccc21 [AMITRIPTYLINE]")
2.85

Short answer for Cc1ncc2n1-c1ccc(Cl)cc1C(c1ccccc1F)=NC2 [MIDAZOLAM] : logD was 3.28

====

Experiment Summary: in vitro
Cond: dog, MDCK
Description: Apparent permeability of the compound across basolateral side to apical side in dog MDCK-II cells incubated for 150 mins by LC-MS/MS analysis
// values below are reported Papp B→A at 2.5 h
Write it as a number; the unit ×10⁻⁶ cm/s goes unstated.

Known results for compounds:
>>> endpoint_value("COc1cc2nc(N3CCN(C(=O)c4ccco4)CC3)nc(N)c2cc1OC [PRAZOSIN]")
12.9
>>> endpoint_value("C[C@H]1O[C@@H](O[C@H]2[C@@H](O)C[C@H](O[C@H]3[C@@H](O)C[C@H](O[C@H]4CC[C@@]5(C)[C@H](CC[C@@H]6[C@@H]5C[C@@H](O)[C@]5(C)[C@@H](C7=CC(=O)OC7)CC[C@]65O)C4)O[C@@H]3C)O[C@@H]2C)C[C@H](O)[C@@H]1O [DIGOXIN]")
5.66

Please find the next compound below.
Looking up C=C[C@H]1C[N@@]2CC[C@H]1C[C@@H]2[C@@H](O)c1ccnc2ccc(OC)cc12 [QUINIDINE] , I see its Papp B→A at 2.5 h listed as 21.4
